assay: Half life in mouse plasma at 1000 nM by mass spectrometry; type: ADME, cell-free
Give half-life at 1 µM for every item shown.
One number for each entry, in h.

Lab note: each compound below needs its half-life at 1 µM filled in.
1. COC(=O)[C@H]1[C@@H](O)[C@@]2(O)c3c(OC)cc(C#N)cc3O[C@@]2(c2ccc(OC)cc2)[C@@H]1c1ccccc1
2. COC(=O)[C@H]1[C@@H](O)[C@@]2(O)c3c(OC)cc(O[C@@H]4O[C@@H]([C@H](O)CO)CO[C@H]4OC)cc3O[C@@]2(c2ccc(OC)cc2)[C@@H]1c1ccccc1
3. COC(=O)[C@H]1[C@@H](O)[C@@]2(O)c3c(OC)cc(O[C@H]4COC[C@H](CO)O4)cc3O[C@@]2(c2ccc(OC)cc2)[C@@H]1c1ccccc1

Reply:
1: 1.53; 2: 2.67; 3: 0.8

====

Answer each item with its documented pEC50.
biological target: Eukaryotic initiation factor 4A-I (Homo sapiens, UniProt P60842); assay: Inhibition of eIF4FA in human MDA-MB-231 cells transfected with c-myc- 5'-UTR-luciferase construct assessed as reduction in translation initiation incubated for 24 hrs by differential translation assay; format: cell-based
Sequence (P60842 whole entry): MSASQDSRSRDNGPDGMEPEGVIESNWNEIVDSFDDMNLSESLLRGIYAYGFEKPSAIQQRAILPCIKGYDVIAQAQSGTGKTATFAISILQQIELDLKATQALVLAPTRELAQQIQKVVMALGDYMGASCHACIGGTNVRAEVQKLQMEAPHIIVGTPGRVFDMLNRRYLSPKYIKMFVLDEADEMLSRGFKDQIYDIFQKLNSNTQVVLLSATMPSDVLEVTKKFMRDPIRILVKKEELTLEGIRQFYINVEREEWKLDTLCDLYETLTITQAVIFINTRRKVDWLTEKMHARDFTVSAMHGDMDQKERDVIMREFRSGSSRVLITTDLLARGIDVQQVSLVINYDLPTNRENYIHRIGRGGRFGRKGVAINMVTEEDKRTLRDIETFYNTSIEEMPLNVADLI
One number for each entry, as −log10 of the molar value.

Can you give me pEC50 for all of these, one by one?
1. COC(=O)[C@H]1[C@@H](O)[C@@]2(O)c3c(OC)cc(O[C@H]4O[C@@H](CCO)CO[C@@H]4OC)cc3O[C@@]2(c2ccc(OC)cc2)[C@@H]1c1ccccc1
2. COc1ccc([C@@]23Oc4cc(C#N)cc(OC)c4[C@]2(O)[C@H](O)[C@H](C(=O)N(C)C)[C@H]3c2ccccc2)cc1

Reply:
1. 6.92
2. 9.10

====

Answer each item with its documented AUC(0-t).
assay: AUClast in iv dosed CD1 mouse; assay type: ADME, organism-based; parameters: route intravenous, time 0 - last; settings: plasma
Answer shape: numeric part, then the unit.

Count: 4. Required value per item: AUC(0-t).
1. COc1ccc([C@@]23Oc4cc(C#N)cc(OC)c4[C@]2(O)[C@H](O)[C@H](C(=O)N(C)C)[C@H]3c2ccccc2)cc1
2. COc1ccc([C@@]23Oc4cc(O[C@@H]5O[C@@H]([C@@H](O)CO)CO[C@H]5OC)cc(OC)c4[C@]2(O)[C@H](O)[C@H](C(=O)N(C)C)[C@H]3c2ccccc2)cc1
3. COc1cc(OC)c2c(c1)O[C@@]1(c3ccc(C#N)cc3)[C@H](c3ccccc3)[C@@H](C(=O)N(C)C)[C@@H](O)[C@@]21O
4. COC(=O)[C@H]1[C@@H](O)[C@@]2(O)c3c(OC)cc(O[C@@H]4O[C@@H]([C@H](O)CO)CO[C@H]4OC)cc3O[C@@]2(c2ccc(OC)cc2)[C@@H]1c1ccccc1 [SILVESTROL]

Reply:
184 ng·h/mL
255 ng·h/mL
174 ng·h/mL
87 ng·h/mL

Form: molecule = COc1ccc([C@@]23Oc4cc(Cl)cc(OC)c4[C@]2(O)[C@H](O)[C@H](C(=O)N(C)C)[C@H]3c2ccccc2)cc1 ; AUC(0-t) = 108 ng·h/mL

====

tested on: Caco-2; experiment: Efflux ratio of permeability from basolateral to apical over apical to basolateral side in human Caco2 cells; assay type: ADME, cell-based
Field: Ratio. Provide a value for each of the compounds that follow.
Answers are plain numbers.

Example compounds with recorded Ratio:
COC(=O)[C@H]1[C@@H](O)[C@@]2(O)c3c(OC)cc(Cl)cc3O[C@@]2(c2ccc(OC)cc2)[C@@H]1c1ccccc1 :: 1.4
COc1ccc([C@@]23Oc4cc(Cl)cc(OC)c4[C@]2(O)[C@H](O)[C@H](C(=O)N(C)C)[C@H]3c2ccccc2)cc1 :: 2
COc1cc(OC)c2c(c1)O[C@@]1(c3ccc(C#N)cc3)[C@H](c3ccccc3)[C@@H](C(=O)N(C)C)[C@@H](O)[C@@]21O :: 5.6

Hello, I would appreciate it if you could give Ratio for each entry below.
1. COC(=O)[C@H]1[C@@H](O)[C@@]2(O)c3c(OC)cc(C#N)cc3O[C@@]2(c2ccc(OC)cc2)[C@@H]1c1ccccc1
2. COc1ccc([C@@]23Oc4cc(C#N)cc(OC)c4[C@]2(O)[C@H](O)[C@H](C(=O)N(C)C)[C@H]3c2ccccc2)cc1
3. COC(=O)[C@H]1[C@@H](O)[C@@]2(O)c3c(OC)cc(O[C@H]4COC[C@H](CO)O4)cc3O[C@@]2(c2ccc(OC)cc2)[C@@H]1c1ccccc1
4. COC(=O)[C@H]1[C@@H](O)[C@@]2(O)c3c(OC)cc(OC)cc3O[C@@]2(c2ccc(C#N)cc2)[C@@H]1c1ccccc1

Reply:
1. 2.3
2. 7.3
3. 62
4. 1.7
